target: Adenosine receptor A1 (Rattus norvegicus); assay: Binding affinity at rat Adenosine A1 receptor in the absence of GTP
Sequence (P25099 whole entry): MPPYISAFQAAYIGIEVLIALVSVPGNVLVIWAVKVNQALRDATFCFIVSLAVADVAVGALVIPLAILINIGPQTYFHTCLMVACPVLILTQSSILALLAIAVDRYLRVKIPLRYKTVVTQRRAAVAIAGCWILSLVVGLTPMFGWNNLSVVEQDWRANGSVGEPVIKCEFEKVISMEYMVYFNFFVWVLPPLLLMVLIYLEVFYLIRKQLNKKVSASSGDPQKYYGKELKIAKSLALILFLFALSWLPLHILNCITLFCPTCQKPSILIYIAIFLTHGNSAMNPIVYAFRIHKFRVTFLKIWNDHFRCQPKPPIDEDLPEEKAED
Label T when Ki is strictly below 0.1 µM; otherwise label F.

Field: example entries. Status: answers known.
Query string: Hello, I'm reviewing records and need to know if Ki of `Cn1cnc2c(NC3CCCC3)ncnc21` is below 0.1 µM. Could you check?
Result string: F

Query string: Hello, I'm reviewing records and need to know if Ki of `O=C(N[C@@H]1[C@@H](O)[C@H](n2cnc3c(NC4CCCC4)ncnc32)O[C@@H]1CO)c1ccc(F)c(Cl)c1` is below 0.1 µM. Could you check?
Result string: T

New cases:
Query string: Hello, I'm reviewing records and need to know if Ki of `O=C(CCCc1cccs1)N[C@@H]1[C@@H](O)[C@H](n2cnc3c(NC4CCCC4)ncnc32)O[C@@H]1CO` is below 0.1 µM. Could you check?
Result string: T

Query string: Hello, I'm reviewing records and need to know if Ki of `Cc1ccc(C(=O)N[C@@H]2[C@@H](O)[C@H](n3cnc4c(NC5CCCC5)ncnc43)O[C@@H]2CO)cc1C` is below 0.1 µM. Could you check?
Result string: T

Query string: Hello, I'm reviewing records and need to know if Ki of `C[C@H]1O[C@@H](n2cnc3c(NC4CCCC4)ncnc32)[C@H](O)[C@H]1O` is below 0.1 µM. Could you check?
Result string: T

Query string: Hello, I'm reviewing records and need to know if Ki of `CCc1ccc(C(=O)N[C@@H]2[C@@H](O)[C@H](n3cnc4c(NC5CCCC5)ncnc43)O[C@@H]2C)cc1` is below 0.1 µM. Could you check?
Result string: F

Query string: Hello, I'm reviewing records and need to know if Ki of `CC(C)c1ccc(C(=O)N[C@@H]2[C@@H](O)[C@H](n3cnc4c(NC5CCCC5)ncnc43)O[C@@H]2CO)cc1` is below 0.1 µM. Could you check?
Result string: F

Query string: Hello, I'm reviewing records and need to know if Ki of `C[C@H]1O[C@@H](n2cnc3c(NC4CCCC4)ncnc32)[C@H](O)[C@H]1NC(=O)C1(c2ccccc2)CCCCC1` is below 0.1 µM. Could you check?
Result string: F

Query string: Hello, I'm reviewing records and need to know if Ki of `C[C@H]1O[C@@H](n2cnc3c(NC4CCCC4)ncnc32)[C@H](O)[C@H]1NC(=O)CCCOc1ccccc1` is below 0.1 µM. Could you check?
Result string: F

Query string: Hello, I'm reviewing records and need to know if Ki of `Cc1ccc(C(=O)N[C@@H]2[C@@H](O)[C@H](n3cnc4c(NC5CCCC5)ncnc43)O[C@@H]2CO)cc1F` is below 0.1 µM. Could you check?
Result string: F

Query string: Hello, I'm reviewing records and need to know if Ki of `C[C@H]1O[C@@H](n2cnc3c(NC4CCCC4)ncnc32)[C@H](O)[C@H]1NC(=O)C1(c2ccccc2)CCCC1` is below 0.1 µM. Could you check?
Result string: F

Query string: Hello, I'm reviewing records and need to know if Ki of `OC[C@H]1O[C@@H](n2cnc3c(NC4CCCC4)ncnc32)C[C@H]1O` is below 0.1 µM. Could you check?
Result string: F

Query string: Hello, I'm reviewing records and need to know if Ki of `Cc1ccc(C(=O)N[C@@H]2[C@@H](O)[C@H](n3cnc4c(NC5CCCC5)ncnc43)O[C@@H]2C)cc1C` is below 0.1 µM. Could you check?
Result string: F

Query string: Hello, I'm reviewing records and need to know if Ki of `CC(C)c1ccc(C(=O)N[C@@H]2[C@@H](O)[C@H](n3cnc4c(NC5CCCC5)ncnc43)O[C@@H]2C)cc1` is below 0.1 µM. Could you check?
Result string: F

Query string: Hello, I'm reviewing records and need to know if Ki of `C[C@H]1O[C@@H](n2cnc3c(NC4CCCC4)ncnc32)[C@H](O)[C@H]1NC(=O)CCCc1cccs1` is below 0.1 µM. Could you check?
Result string: T

----------
Target: Adenosine receptor A1 (Homo sapiens)
Sequence (P30542 whole entry): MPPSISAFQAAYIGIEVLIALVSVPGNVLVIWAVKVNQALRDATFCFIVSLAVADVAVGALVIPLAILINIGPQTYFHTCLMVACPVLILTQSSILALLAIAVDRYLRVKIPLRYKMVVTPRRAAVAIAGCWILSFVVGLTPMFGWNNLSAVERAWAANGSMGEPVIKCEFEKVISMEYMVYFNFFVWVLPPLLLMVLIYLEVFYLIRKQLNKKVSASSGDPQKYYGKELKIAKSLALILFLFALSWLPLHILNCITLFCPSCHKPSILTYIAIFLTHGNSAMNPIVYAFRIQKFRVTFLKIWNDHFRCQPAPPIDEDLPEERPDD
Experiment: Binding affinity at human Adenosine A1 receptor expressed in CHO cells
Assay type: cell-based
Label Yes when Ki is strictly below 600 nM; otherwise label No.

Field: example entries. Status: answers known.
Query string: Hello, I'm reviewing records and need to know if Ki of `C[C@H]1O[C@@H](n2cnc3c(NC4CCCC4)ncnc32)[C@H](O)[C@H]1NC(=O)CCCc1cccs1` is below 600 nM. Could you check?
Result string: Yes

Query string: Hello, I'm reviewing records and need to know if Ki of `O=C(CCCc1cccs1)N[C@@H]1[C@@H](O)[C@H](n2cnc3c(NC4CCCC4)ncnc32)O[C@@H]1CO` is below 600 nM. Could you check?
Result string: No

Query string: Hello, I'm reviewing records and need to know if Ki of `Cc1ccc(C(=O)N[C@@H]2[C@@H](O)[C@H](n3cnc4c(NC5CCCC5)ncnc43)O[C@@H]2CO)cc1F` is below 600 nM. Could you check?
Result string: No

Query string: Hello, I'm reviewing records and need to know if Ki of `Cn1cnc2c(NC3CCCC3)ncnc21` is below 600 nM. Could you check?
Result string: No

Now look at this entry.
Query string: Hello, I'm reviewing records and need to know if Ki of C[C@H]1O[C@@H](n2cnc3c(NC4CCCC4)ncnc32)[C@H](O)[C@H]1NC(=O)C1CCCC[C@H]1C(=O)c1cccs1 (stereo not given in full) is below 600 nM. Could you check?
Result string: No

----------
target: Adenosine receptor A1 (Rattus norvegicus); experiment: Binding affinity at rat Adenosine A1 receptor in the presence of GTP
Label y when Ki is strictly below 100 nM; otherwise label n.

Field: example entries. Status: answers known.
Query string: Hello, I'm reviewing records and need to know if Ki of C[C@H]1O[C@@H](n2cnc3c(NC4CCCC4)ncnc32)[C@H](O)[C@H]1NC(=O)C1CCCC[C@H]1C(=O)c1cccs1 (stereo not given in full) is below 100 nM. Could you check?
Result string: y

Query string: Hello, I'm reviewing records and need to know if Ki of `C[C@H]1O[C@@H](n2cnc3c(NC4CCCC4)ncnc32)[C@H](O)[C@H]1NC(=O)C1(c2ccccc2)CCCCC1` is below 100 nM. Could you check?
Result string: n

Query string: Hello, I'm reviewing records and need to know if Ki of `C[C@H]1O[C@@H](n2cnc3c(NC4CCCC4)ncnc32)[C@H](O)[C@H]1O` is below 100 nM. Could you check?
Result string: n

Query string: Hello, I'm reviewing records and need to know if Ki of `C[C@H]1O[C@@H](n2cnc3c(NC4CCCC4)ncnc32)[C@H](O)[C@H]1NC(=O)C1(c2ccccc2)CCCC1` is below 100 nM. Could you check?
Result string: n

Query string: Hello, I'm reviewing records and need to know if Ki of `O=C(CCCc1cccs1)N[C@@H]1[C@@H](O)[C@H](n2cnc3c(NC4CCCC4)ncnc32)O[C@@H]1CO` is below 100 nM. Could you check?
Result string: y

Query string: Hello, I'm reviewing records and need to know if Ki of `OC[C@H]1O[C@@H](n2cnc3c(NC4CCCC4)ncnc32)C[C@H]1O` is below 100 nM. Could you check?
Result string: n

Query string: Hello, I'm reviewing records and need to know if Ki of `Cn1cnc2c(NC3CCCC3)ncnc21` is below 100 nM. Could you check?
Result string: n

Query string: Hello, I'm reviewing records and need to know if Ki of `O=C(N[C@@H]1[C@@H](O)[C@H](n2cnc3c(NC4CCCC4)ncnc32)O[C@@H]1CO)c1ccc(F)c(Cl)c1` is below 100 nM. Could you check?
Result string: y

Query string: Hello, I'm reviewing records and need to know if Ki of `Cc1ccc(C(=O)N[C@@H]2[C@@H](O)[C@H](n3cnc4c(NC5CCCC5)ncnc43)O[C@@H]2CO)cc1C` is below 100 nM. Could you check?
Result string: y

Now look at this entry.
Query string: Hello, I'm reviewing records and need to know if Ki of `C[C@H]1O[C@@H](n2cnc3c(NC4CCCC4)ncnc32)[C@H](O)[C@H]1NC(=O)CCCc1cccs1` is below 100 nM. Could you check?
Result string: y
